- System: prostaglandin E2
- ASSAY INFO: Inhibition of prostaglandin E2 production in LPS-stimulated Raw 264.7 cells (enzyme immunometric assay)
- Assay type: cell-based, murine
- STATED CONDITIONS: Mus musculus, RAW264.7; 0.3 μg/ml compound; read-out: Inhibition rate (%) of prostaglandin E2 production
VALUE KIND: inhibition at 0.3 µg/mL
Entry format: amount then unit.

These recorded examples may help you get a feel for the data.
[ask] # get_value(readout='inhibition at 0.3 µg/mL', item= C=C1C(=O)[C@@]23C(C[C@H](O)[C@@H]1[C@H]2O)[C@@]1(C)C(C[C@H]3O)C(C)(C)CC[C@@H]1O (stereo partly shown) [Exisanin A, exisanin A] )
[reply] 11.7%

[ask] So what's the measured inhibition at 0.3 µg/mL for this one? C=C1C(=O)[C@@]23[C@H](O)C[C@@H]4C(C)(C)CC[C@H](O)[C@@]4(C)[C@@H]2CC[C@@H]1[C@H]3O [Kamebanin, kamebanin]
[reply] 73.9%

[ask] Quick check: inhibition at 0.3 µg/mL of C=C1C(=O)[C@@]23[C@H](O)C[C@@H]4C(C)(C)CC[C@H](O)[C@@]4(CO)[C@@H]2CC[C@@H]1[C@H]3O [Kamebakaurin, kamebakaurin] ?
[reply] 9.7%

Next item in the queue.
[ask] What inhibition at 0.3 µg/mL value was documented for this compound, C=C1C(=O)[C@@]23C4CC5C(C)(C)CC[C@H](O)[C@@]5(C(OC)O4)C2CC[C@@H]1[C@H]3O (stereo partly shown) [Kamebacetal A, kamebacetal A] ?
[reply] 19.6%

* * *

- Tested on: prostaglandin E2
- ASSAY INFO: Inhibition of prostaglandin E2 production in LPS-stimulated Raw 264.7 cells (enzyme immunometric assay)
- Type: cell-based, murine
- STATED CONDITIONS: Mus musculus, RAW264.7; 3 μg/ml compound; read-out: Inhibition rate (%) of prostaglandin E2 production
compounds and their reported inhibition at 3 µg/mL
Dear colleague, please return just the value in %, with no unit written.

[ask] For prostaglandin E2, provide inhibition at 3 µg/mL of C=C1C(=O)[C@@]23C4CC5C(C)(C)CC[C@H](O)[C@@]5(C(OC)O4)C2CC[C@@H]1[C@H]3O (stereo partly shown) please.
[reply] 85.6

[ask] Give recorded inhibition at 3 µg/mL with prostaglandin E2 for the following compound: C=C1C(=O)[C@@]23[C@H](O)C[C@@H]4C(C)(C)CC[C@H](O)[C@@]4(C)[C@@H]2CC[C@@H]1[C@H]3O
[reply] 104

Others:
[ask] # query: inhibition at 3 µg/mL | item C=C1C(=O)[C@@]23C(C[C@H](O)[C@@H]1[C@H]2O)[C@@]1(C)C(C[C@H]3O)C(C)(C)CC[C@@H]1O (stereo partly shown) | system: prostaglandin E2
[reply] 57.7

* * *

- System: TNF-α
- ASSAY INFO: Inhibition of TNF-α production in LPS-stimulated Raw 264.7 cells (enzyme immunometric assay)
- Assay type: cell-based, murine
- STATED CONDITIONS: 0.03 μg/ml compound, 1 μg/ml LPS, 16 hours
Below is a list of entries, each paired with its recorded TNF-α value.
Returns: string containing the numeric result and its unit.

[ask] Please give the measured TNF-α for this compound: C=C1C(=O)[C@@]23[C@H](O)C[C@@H]4C(C)(C)CC[C@H](O)[C@@]4(C)[C@@H]2CC[C@@H]1[C@H]3O
[reply] 1835.0 ± 158.8 pg/mL

[ask] Record request: TNF-α value, item C=C1C(=O)[C@@]23[C@H](O)C[C@@H]4C(C)(C)CC[C@H](O)[C@@]4(CO)[C@@H]2CC[C@@H]1[C@H]3O
[reply] 1407.0 ± 255.6 pg/mL

[ask] Name the recorded TNF-α for C=C1C(=O)[C@@]23C(C[C@H](O)[C@@H]1[C@H]2O)[C@@]1(C)C(C[C@H]3O)C(C)(C)CC[C@@H]1O (stereo partly shown) .
[reply] 1243.0 ± 195.6 pg/mL

Continue with the next compound.
[ask] // TNF-α lookup, key: C=C1C(=O)[C@@]23C4CC5C(C)(C)CC[C@H](O)[C@@]5(C(OC)O4)C2CC[C@@H]1[C@H]3O (stereo partly shown)
[reply] 1495.0 ± 239.7 pg/mL

* * *

- Test system: nitric oxide (NO)
- ASSAY INFO: Inhibition of NO production (nitrite, Griess reagent) in LPS-stimulated Raw 264.7 macrophage cells
- Assay type: cell-based, murine
- STATED CONDITIONS: 3 μg/ml compound, 1 μg/ml LPS, 24 hours
VALUE KIND: NO (µM)
# unit: µM | format: bare number

[ask] NO for C=C1C(=O)[C@@]23C(C[C@H](O)[C@@H]1[C@H]2O)[C@@]1(C)C(C[C@H]3O)C(C)(C)CC[C@@H]1O (stereo partly shown) ?
[reply] 6.7

Further cases:
[ask] What value of NO has been recorded for this entry: C=C1C(=O)[C@@]23[C@H](O)C[C@@H]4C(C)(C)CC[C@H](O)[C@@]4(CO)[C@@H]2CC[C@@H]1[C@H]3O
[reply] 3.6

[ask] State the recorded NO for this entry: C=C1C(=O)[C@@]23C4CC5C(C)(C)CC[C@H](O)[C@@]5(C(OC)O4)C2CC[C@@H]1[C@H]3O (stereo partly shown)
[reply] 3.3

[ask] Look up NO: C=C1C(=O)[C@@]23[C@H](O)C[C@@H]4C(C)(C)CC[C@H](O)[C@@]4(C)[C@@H]2CC[C@@H]1[C@H]3O
[reply] 3.6

* * *

Entries and their inhibition at 3 µg/mL values follow.
- Tested on: NF-κB
- ASSAY INFO: NF-κB activation, SEAP reporter in LPS-stimulated RAW-NF-AP cells
- Format: cell-based, murine
- STATED CONDITIONS: Mus musculus; 3 μg/ml compound, 1 μg/ml LPS, 16 hours
Value and unit, in that order.

Check out these entries, answers already filled in.
[ask] So what inhibition at 3 µg/mL did C=C1C(=O)[C@@]23C(C[C@H](O)[C@@H]1[C@H]2O)[C@@]1(C)C(C[C@H]3O)C(C)(C)CC[C@@H]1O (stereo partly shown) [Exisanin A, exisanin A] get with NF-κB?
[reply] 93.7%

[ask] Provide value of inhibition at 3 µg/mL for this record tested with NF-κB: C=C1C(=O)[C@@]23[C@H](O)C[C@@H]4C(C)(C)CC[C@H](O)[C@@]4(CO)[C@@H]2CC[C@@H]1[C@H]3O [Kamebakaurin, kamebakaurin]
[reply] 96.4%

[ask] Provide value of inhibition at 3 µg/mL for this record tested with NF-κB: C=C1C(=O)[C@@]23C4CC5C(C)(C)CC[C@H](O)[C@@]5(C(OC)O4)C2CC[C@@H]1[C@H]3O (stereo partly shown) [Kamebacetal A, kamebacetal A]
[reply] 110%

Continuing:
[ask] Find the measured inhibition at 3 µg/mL: item C=C1C(=O)[C@@]23[C@H](O)C[C@@H]4C(C)(C)CC[C@H](O)[C@@]4(C)[C@@H]2CC[C@@H]1[C@H]3O [Kamebanin, kamebanin] , target or system NF-κB.
[reply] 99.7%

* * *

- System: NF-κB
- ASSAY INFO: NF-κB activation, SEAP reporter in LPS-stimulated RAW-NF-AP cells
- Type: cell-based, murine
- STATED CONDITIONS: Mus musculus; 0.03 μg/ml compound, 1 μg/ml LPS, 16 hours
Let's look at some molecules and their measured inhibition at 0.03 µg/mL.
Kindly provide the numeric value in % only, without the unit symbol.

[ask] Give the measured inhibition at 0.03 µg/mL of C=C1C(=O)[C@@]23C4CC5C(C)(C)CC[C@H](O)[C@@]5(C(OC)O4)C2CC[C@@H]1[C@H]3O (stereo partly shown) .
[reply] 1.3

[ask] Fill in the blank: the reported inhibition at 0.03 µg/mL of C=C1C(=O)[C@@]23[C@H](O)C[C@@H]4C(C)(C)CC[C@H](O)[C@@]4(CO)[C@@H]2CC[C@@H]1[C@H]3O is ____.
[reply] 2.5

[ask] For the molecule shown here, C=C1C(=O)[C@@]23[C@H](O)C[C@@H]4C(C)(C)CC[C@H](O)[C@@]4(C)[C@@H]2CC[C@@H]1[C@H]3O , give the reported inhibition at 0.03 µg/mL.
[reply] 0.6

Further cases:
[ask] Look up inhibition at 0.03 µg/mL: C=C1C(=O)[C@@]23C(C[C@H](O)[C@@H]1[C@H]2O)[C@@]1(C)C(C[C@H]3O)C(C)(C)CC[C@@H]1O (stereo partly shown)
[reply] -2.6
